Test system: CCRF-CEM
Experimental Details: In vitro growth-inhibition assay utilizing CCRF-CEM cells, a lymphoblastic leukemic line of human origin
Format: functional
Experimental Parameters: read-out: ID50 (the source's name)
Measurement Label: pIC50
Please note pIC50 is a logarithmic value: minus log10 of concentration in mol/L. Answer with that number alone.

A selection of reference data follows.
CCC(=O)SCC(=O)[C@]1(O)Cc2c(O)c3c(c(O)c2[C@@H](OC2CC(NC(=O)C(F)(F)F)C(O)C(C)O2)C1)C(=O)c1c(OC)cccc1C3=O (stereo partly drawn) | 5.55
COc1cccc2c1C(=O)c1c(O)c3c(c(O)c1C2=O)C[C@@](O)(C(=O)CO)C[C@@H]3O[C@H]1C[C@H](N)[C@H](O)[C@H](C)O1 [DOXORUBICIN] | 7.22

Please look at the following compound next.
Q. Entry COc1cccc2c1C(=O)c1c(O)c3c(c(O)c1C2=O)C[C@@](O)(C(=O)CSC(=O)c1ccccc1)C[C@@H]3OC1CC(NC(=O)C(F)(F)F)C(O)C(C)O1 (stereo partly drawn) has what pIC50?
A. 5.42
